- ASSAY INFO: Oral bioavailability in dog (Beagle) (dose 2.5 mg/kg)
- Assay type: ADME, organism-based, Canis lupus familiaris
- EXPERIMENTAL SETUP: in vivo
OBSERVABLE: bioavailability (%)
Dear colleague, please return just the value in %, with no unit written.

Can you look up the measured bioavailability of C[C@@H](O)CNC(=O)[C@@H](Cc1ccccc1)N(C)C(=O)[C@@H](Cc1ccc2ccccc2c1)N(C)C(=O)/C=C/CC(C)(C)N (stereo in doubt; 7b) for me?
21

Can you handle CNC(=O)[C@@H](Cc1ccc(F)cc1)N(C)C(=O)[C@@H](Cc1ccc2ccccc2c1)N(C)C(=O)/C=C/CC(C)(C)N next?
55
